# Assayed target: T1, RADIL, Q96JH8
# T1 sequence (Q96JH8 971-1071, limits assumed, looked up): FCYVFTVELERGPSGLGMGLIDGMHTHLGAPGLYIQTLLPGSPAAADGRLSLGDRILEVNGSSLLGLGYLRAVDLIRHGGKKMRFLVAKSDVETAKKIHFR
# Assay procedure: holdup assay
# Design: key: below the threshold = too weak to quantify, mostly under pKd 3.1 to 4
# Stated conditions: plain residues with an end cap or a label only (N-terminal biotin on a linker: ado-ado)
Endpoint label: pKd

> print(dat)
                          binder  endpoint.label      recorded.result
1    MLSKQSESAI [FLVCR1, Q9Y5Y0]             pKd  below the threshold
2    TASPAKETSF [SLC2A7, Q6PXP3]             pKd  below the threshold
3  RHGSCVETSL [TMEM151B, Q8IW70]             pKd  below the threshold
